Data origin: paper PMC8070648

# TEST PROTOCOL: Biodistribution in AR42J tumor-bearing nude mice
# Type: in vivo
# CONDITION SET: female, CD-1 nude, mouse, femoral muscle, iv, 1 nmol/mouse, total radioactivity, 2 h p.i., i.v. 5 MBq, read-out: Muscle
PARAMETER MEASURED: tissue uptake at 2 h

Form field: reported tissue uptake at 2 h of C[C@@H](O)[C@@H]1NC(=O)[C@H](CCCCN)NC(=O)[C@@H](Cc2c[nH]c3ccccc23)NC(=O)[C@H](Cc2ccc(O)cc2)NC(=O)[C@@H](NC(=O)[C@@H](Cc2ccccc2)NC(=O)CN2CCN(CC(=O)O)CCN(CC(=O)O)CCN(CC(=O)O)CC2)CSSC[C@@H](C(=O)N[C@H](CO)[C@@H](C)O)NC1=O [[^161Tb]Tb-DOTATOC, metal not drawn]
≤ 0.1 %ID/g
